Molecular target: Fuc(a1-3)[GalNAc(b1-4)]GlcNAc6S
Experiment: glycan array binding signal (z-score within array); higher = stronger binding
Details: glycan notation: IUPAC condensed, linker removed
The full list was thinned out, with the strongest signals kept by preference.
READOUT TYPE: glycan array binding signal (z-score)
// print number alone

>  <BINDER>
Epa8 (Candida glabrata) (protein) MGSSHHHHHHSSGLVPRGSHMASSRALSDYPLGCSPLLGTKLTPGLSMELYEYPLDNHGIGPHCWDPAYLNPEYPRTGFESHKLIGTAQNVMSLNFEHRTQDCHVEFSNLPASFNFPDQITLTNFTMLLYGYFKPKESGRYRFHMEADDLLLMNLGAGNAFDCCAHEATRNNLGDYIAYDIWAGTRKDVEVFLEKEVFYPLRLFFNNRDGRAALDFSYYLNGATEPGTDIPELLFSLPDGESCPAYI

>  <glycan array binding signal (z-score)>
-0.401

$$$$
>  <BINDER>
AFCNVH (Aspergillus fumigatus) (protein) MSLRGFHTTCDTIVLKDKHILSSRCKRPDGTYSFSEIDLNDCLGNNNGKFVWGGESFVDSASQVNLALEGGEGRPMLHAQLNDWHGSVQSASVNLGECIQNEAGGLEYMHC

>  <glycan array binding signal (z-score)>
0.612

$$$$
>  <BINDER>
Als3-2 (Candida albicans) (protein) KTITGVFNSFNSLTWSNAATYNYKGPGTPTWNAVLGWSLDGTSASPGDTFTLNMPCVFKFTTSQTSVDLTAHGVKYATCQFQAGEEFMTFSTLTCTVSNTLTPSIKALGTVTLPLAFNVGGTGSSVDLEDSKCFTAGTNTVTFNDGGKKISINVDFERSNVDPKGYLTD

>  <glycan array binding signal (z-score)>
0.076

$$$$

Proceeding to the next binder to report its glycan array binding signal (z-score).
stdin: Could you share which glycan array binding signal (z-score) value was measured for Clone730PsrP (Streptococcus pneumoniae) (protein) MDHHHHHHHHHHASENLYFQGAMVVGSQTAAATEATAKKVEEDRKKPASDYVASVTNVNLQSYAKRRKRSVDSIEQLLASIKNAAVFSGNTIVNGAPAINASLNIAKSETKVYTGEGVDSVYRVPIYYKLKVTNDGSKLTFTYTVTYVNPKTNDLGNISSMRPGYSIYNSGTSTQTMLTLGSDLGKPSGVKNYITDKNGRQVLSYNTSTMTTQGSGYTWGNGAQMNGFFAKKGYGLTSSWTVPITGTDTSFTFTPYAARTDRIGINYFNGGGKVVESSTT ?
stdout: 0.499

Data origin: the supplement of paper PMC8728848
